measuredOn: T1, biotinylated hBLyS-ECD (human, UniProt Q9Y275 134-285, biotinylated with Biotin-X-X-NHS (molar ratio 7:1); sites not stated)
T1 construct: also called biotinylated immunogen; biotinylated hBLvS-ECD
assayInfo: ELISA on captured biotinylated hBLyS-ECD; antibody 2.67 nM
Entries annotated with measured OD450 nm
Just the number plus its unit, please.

Please review the following examples before continuing.
c97A3C2H4 (antibody, V domains shown, also called chimeric antibody c97A3C2H4) VH: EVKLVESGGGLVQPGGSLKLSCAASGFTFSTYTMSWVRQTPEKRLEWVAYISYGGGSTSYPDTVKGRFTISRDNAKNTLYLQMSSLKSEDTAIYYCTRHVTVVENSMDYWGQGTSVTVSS VL: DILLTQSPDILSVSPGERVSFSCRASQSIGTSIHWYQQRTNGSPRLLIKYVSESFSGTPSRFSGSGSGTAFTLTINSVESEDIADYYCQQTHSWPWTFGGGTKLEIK; 3.32 OD450 nm
c67A2E1D10 (antibody, V domains shown) VH: EVQLQQSGAELVKPGASVKLSCTASGFNIKNYYMHWVKQRTEEGLEWIGRIDPEDGETKYAPKFQAKATITADTSSNTAYLQLSSLTSEDTAVYFCARKGYYGNYGAWFAYWGQGTLVTVSA VL: DIQMTQSPASLSVSVGETVTITCRASEDLYSNLAWYQQKQGKSPQLLVYAATFLADGVPSRFSGSGSGTQYSLKINSLQSEDFGNYYCQHFWGTPPTFGGGTKLEIK; 2.94 OD450 nm
c8E7D9C7F5 (antibody, V domains shown, also called chimeric antibody c8E7D9C7F5) VH: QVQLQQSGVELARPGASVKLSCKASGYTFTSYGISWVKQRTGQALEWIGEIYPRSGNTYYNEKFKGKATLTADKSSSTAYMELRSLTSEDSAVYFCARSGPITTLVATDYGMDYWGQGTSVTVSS VL: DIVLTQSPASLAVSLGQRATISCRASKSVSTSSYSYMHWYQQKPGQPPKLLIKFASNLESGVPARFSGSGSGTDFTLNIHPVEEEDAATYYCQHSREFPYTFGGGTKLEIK; 3.24 OD450 nm

Now consider the entry below.
Look up OD450 nm for this binder: c111D10D6G3 (antibody, V domains shown) VH: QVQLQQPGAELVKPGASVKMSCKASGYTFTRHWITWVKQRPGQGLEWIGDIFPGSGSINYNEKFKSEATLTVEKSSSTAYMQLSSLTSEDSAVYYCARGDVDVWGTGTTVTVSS VL: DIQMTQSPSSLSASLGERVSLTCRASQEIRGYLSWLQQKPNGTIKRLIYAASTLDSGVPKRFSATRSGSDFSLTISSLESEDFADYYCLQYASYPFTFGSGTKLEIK
3.4 OD450 nm
